Hello, the source for this data is FireProtDB (doi:10.1006/jmbi.1995.0323), in case you need it.

B1: Subtilisin inhibitor, P01006 (parent)
chain: MRNTGAGPSPSVSRPPPSAAPLSGAALAAPGDAPSALYAPSALVLTVGKGVSATTAAPERAVTLTCAPGPSGTHPAAGSACADLAAVGGDLNALTRGEDVMCPMVYDPVLLTVDGVWQGKRVSYERVFSNECEMNAHGSSVFAF

- Variants of: B1
- condition-notes: Streptomyces albogriseolus; pH 7; Thermal; DSC; Sodium phosphate 25 mM; reversible: yes; structure 3SSI; whole UniProt chain shown
measured-attribute: change of melting temperature, mutant - wild type (higher = more stable)
Kindly format the answer as number then unit.

mutation-name: M134L
result: 0.3 °C

mutation-name: M134I
result: -3.9 °C

mutation-name: M134G
result: -13.6 °C

Let's switch to this variant now.
Asked: Return value of change of melting temperature, mutant - wild type (higher = more stable) for input "M134V" , no commentary.
Given back: -3.6 °C
